# credit: ChEMBL document CHEMBL5214898

Experiment: Drug uptake in Wistar Han rat plasma 10 mg/kg, po measured after 24 hrs mins by LC-MS/MS analysis
Type: ADME, organism-based
Outcome Measure: concentration at 24 h (nM)

1) CCC(=O)CCCCC[C@H](NC(=O)[C@H]1CC12CCN(CC)CC2)c1ncc(-c2cc3ccn(CC)c(=O)c3cc2OC)o1: 2.2
2) CCC(=O)CCCCC[C@H](NC(=O)[C@H]1CC12CCN(CC)CC2)c1ncc(-c2cc3cccnc3nc2OC)o1: 9.2
3) CCC(=O)CCCCC[C@H](NC(=O)[C@H]1CC12CCN(C)CC2)c1ncc(-c2cc3ccc(C)nc3cc2F)o1: 1
